test: ATG_SREBP_CIS: Attagene CIS-FACTORIAL HepG2 Assay for human Sterol Regulatory Element Binding (SREBP) (AID 2282962); conditions: HepG2 Attagene cis-factorial SREBP reporter, mRNA; actives raise or lower the signal
Calls of active or inactive are those of the source. Rule for the calls: active = hit-call score of the fitted dose curve at least 0.9, where 1 is the maximum; inactive = score below 0.9.
API: response.call in yes for active, no for inactive

Query block: Field: outcome | Entry: `Cc1cc(C)c(C(=O)O)c(C)c1`
Result block: no

Query block: Follow-up entry: `Cc1ccccc1C`
Result block: no

Query block: Follow-up entry: `Cc1ccc(N/N=c2\c(=O)cc/c(=N/Nc3ccc(S(=O)(=O)O)cc3)c2=O)c(C)c1`
Result block: no

Query block: Follow-up entry: `CCCCCC/C=C/C=O`
Result block: no

Query block: Follow-up entry: `CC(C)c1ccc(C#N)cc1`
Result block: no

Query block: Follow-up entry: `NCCCN1CCN(CCCN)CC1`
Result block: no

Query block: Follow-up entry: `O=C1CCCC(=O)O1`
Result block: no

Query block: Follow-up entry: `NC(=O)OCC(COC(N)=O)c1ccccc1`
Result block: no

Query block: Follow-up entry: CC(CC=O)CCCC(C)(C)O (stereo not given)
Result block: no

Query block: Follow-up entry: `FC(F)(F)C(=NOCC1OCCO1)c1ccc(Cl)cc1`
Result block: no

Query block: Follow-up entry: `CCCNC(=O)NS(=O)(=O)c1ccc(Cl)cc1`
Result block: no

Query block: Follow-up entry: `Cc1cc(=O)n(-c2ccccc2)n1C`
Result block: no

Query block: Follow-up entry: `CCCCCCCC[N+](C)(CCCCCCCC)CCCCCCCC`
Result block: no

Query block: Follow-up entry: `NC(CO)(CO)CO`
Result block: no

Query block: Follow-up entry: CC1=NN(c2cc(S(=O)(=O)O)ccc2Cl)C(=O)C1N=Nc1ccccc1 (stereo not given)
Result block: no

Query block: Follow-up entry: `COc1ccc(C(Cl)=C(c2ccc(OC)cc2)c2ccc(OC)cc2)cc1`
Result block: no

Query block: Follow-up entry: `CCOC(F)(F)C(F)(F)C(F)(F)C(F)(F)F`
Result block: no

Query block: Follow-up entry: `CC1=CC[C@H]2C[C@@H]1C2(C)C`
Result block: no

Query block: Follow-up entry: `NC(=O)N=NC(N)=O`
Result block: no

Query block: Follow-up entry: `CC1=Nc2ccc3ccccc3c2C1(C)C`
Result block: yes
